Experiment: Quantitative high throughput screen for delayed death inhibitors of the malarial parasite plastid, 48 hour incubation (AID 488752); note: nearly all actives have a fitted effect of over 65% in size
Conditions: Plasmodium falciparum growth; series mostly up to 28.7 µM
Records with an inconclusive call do not appear. Activity calls are given as the source filed them. Calls come from the whole dose curve; as a rule, active = well fitted inhibition curve with a large enough effect; inconclusive = small, poorly fitted or top-dose-only effect, or effect the other way; inactive = flat fitted curve, though single readings scatter.
# valid calls are 1 for active, -1 for inactive; nothing else

# example entries with known answers
Inquiry: Test call for this compound, please: COc1ccc(NC(=O)c2ccc(-c3ccc(-c4noc(C)n4)cc3C)cc2)cc1N1CCN(C)CC1
Reply text: 1

Inquiry: Recorded test call requested for [N-]=[N+]=Nc1ccc(C(=O)CSC[C@H](NC(=O)CC[C@H](N)C(=O)O)C(=O)NCC(=O)O)cc1
Reply text: -1

Inquiry: Tell me the assay call for CC1=C(C(=O)O)N2C(=O)[C@@H](NC(=O)C(N)C3=CCC=CC3)[C@H]2SC1 (some centres not stated) please.
Reply text: -1

---
Inquiry: Each compound tested received a call. Report the one for O=C(O)C1CCCNC1 (configuration not stated) .
Reply text: -1

----------
Molecular target: Methanococcus maripaludis chaperonin (MmCpn) (UniProt Q6LX38)
Assay: High-Throughput Screening for Modulators of Cytosolic Chaperonin Activity: MmCpn Primary Screen (AID 488978);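 note: 50 nM MmCpn enzyme hydrolysing 30 µM ATP at 37 °C; 0% is about no effect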
Details: Purified MmCpn ATPase activity, ADP HTRF detection, 10 min; series mostly up to 76.9 µM
Source text: Chaperonins are key components of the cellular chaperone machinery. These large complexes consist of two stacked 7-9 membered rings, each containing a central cavity. Substrates are folded within the cavity in an ATP-dependent manner. TRiC is a complex of eight different, essential proteins. […] 7. Read using EnVision plate reader at Excitation = 320nm and Emission = 590nm, 665nm
Active and inactive are the calls of the source. The call rests on the fitted dose curve; in most records, active means well fitted curve in the direction sought with a large enough effect; inconclusive means small, poorly fitted or top-dose-only effect, or another doubt; inactive means no such curve, though single readings can be large or run the other way.
EXPERIMENTAL_ENDPOINT: outcome

Sample answers from the record:
Inquiry: Fill in: outcome of O=C(O)C1=CCCNC1 is ___
Reply text: inactive

Inquiry: Fill in the blank: the reported outcome of CC1=C(/C=C/C(C)=C/C=C/C(C)=C\C(=O)O)C(C)(C)CCC1 is ____.
Reply text: inactive

Inquiry: Which outcome value is on record for N[C@@H](CCC(=O)N[C@H](CSN=O)C(=O)NCC(=O)O)C(=O)O ?
Reply text: inactive

Inquiry: Entry CCCCS(=N)(=O)CC[C@H](N)C(=O)O (stereo not given in full) has what outcome?
Reply text: inactive

Inquiry: Look up outcome: CCC1(O)CC2CN(CCc3c([nH]c4ccccc34)[C@@](C(=O)OC)(c3cc4c(cc3OC)N(C=O)C3[C@]45CCN4CC=C[C@@](CC)([C@@H](OC(C)=O)[C@]3(O)C(=O)OC)[C@H]45)C2)C1 (stereo not given in full)
Reply text: inactive

Inquiry: I would be grateful if you could share the reported outcome for O=C(O)/C(=C/c1c(C(=O)O)[nH]c2cc(Cl)cc(Cl)c12)c1ccccc1 .
Reply text: inactive

Inquiry: Look at this compound and give its reported outcome. CC[N+](CC)(CC)CC(=O)Nc1c(C)cccc1C
Reply text: inactive

Inquiry: Sample OC1(c2ccc(Cl)cc2)CCN(Cc2c[nH]c3ccccc23)CC1 — what was its outcome?
Reply text: inactive

Further cases:
Inquiry: Consider the compound CN[C@H](CC(=O)O)C(=O)O and give its measured outcome.
Reply text: inactive

Inquiry: Dear colleague, I am looking for the recorded outcome of the following compound: O=C(O)C1=CC(=C(c2ccc(O)c(C(=O)O)c2)c2ccc(O)c(C(=O)O)c2)C=CC1=O
Reply text: inactive

----------
System: TAB165
Experiment: qHTS profiling for inhibitors of Plasmodium falciparum proliferation (AID 504749); note: nearly all actives have a fitted effect of over 60% in size
Details: P. falciparum in erythrocytes, SYBR Green DNA, 72 h; series mostly up to 28.7 µM
Results filed as inconclusive are left out. Activity calls are given as the source filed them. Calls follow the shape of the dose curve; as a rule, active = well fitted inhibition curve with a large enough effect; inconclusive = small, poorly fitted or top-dose-only effect; inactive = flat fitted curve, though single readings scatter.
Entry note: the call must match one of YES = active, NO = inactive

Inquiry: What was the test verdict on c1ccc(C2CN3CCSC3=N2)cc1 (stereo not given) ?
Reply text: YES

Inquiry: Give the logged outcome of this assay for the following compound: CCCCCCCCCCCCCCC[C@H](O)[C@H](N)CO
Reply text: NO

Inquiry: Entry CCCCCCCCCCCCCCCCCCOC[C@H](COP(=O)([O-])OCC[N+](C)(C)C)OC : call = ?
Reply text: NO

More entries:
Inquiry: Look up the recorded call for CC(O)C(O)[C@H]1CNc2nc(N)[nH]c(=O)c2N1 (stereo not given in full) in this test.
Reply text: NO

Inquiry: Assay result, entry CC(C)NC[C@H](O)COc1ccc(CC(N)=O)cc1 — outcome?
Reply text: NO

----------
Assay: qHTS Validation Assay to Find Inhibitors of Chronic Active B-Cell Receptor Signaling (AID 485345);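 note: 0% = untreated basal cells and 100% = 10 µM MG-132 proteasome inhibitor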
Settings: ABC-DLBCL cells, chronic BCR signaling reporter, CBG luciferase; series mostly up to 46.1 µM
Results filed as inconclusive are left out. Active and inactive are the calls of the source. The call rests on the fitted dose curve; in most records, active means well fitted curve in the direction sought with a large enough effect in the main read-out, with a control signal flat (not every such curve was filed as active); inconclusive means small, poorly fitted or top-dose-only effect, or effect the other way, or a change in a side signal; inactive means no such curve, though single readings can be large or run the other way.
EXPERIMENTAL_ENDPOINT: outcome

Use these answered entries as a reference point.
Inquiry: Any idea what outcome was measured for O=C(O)c1cc(=O)cc(C(=O)O)[nH]1 ?
Reply text: inactive

Inquiry: Entry CN(CC[C@@H](Oc1ccc(C(F)(F)F)cc1)c1ccccc1)CC(=O)O : reported outcome = ?
Reply text: inactive

Inquiry: // outcome lookup, key: Cn1cc(C(F)(F)F)nc1-c1ccc(OCC(O)CNCCOc2ccc(O)c(C(N)=O)c2)cc1 (configuration not stated)
Reply text: inactive

Inquiry: # lookup: outcome of NC1C=CC=C(C(=O)O)C1 (configuration not stated)
Reply text: inactive

Inquiry: Find the recorded outcome belonging to NC(=O)CC[C@H](N)C(=O)O and report it.
Reply text: inactive

Next molecule, outcome to be filled in.
Inquiry: Can you look up the measured outcome of O=c1cc(-c2ccccc2)[nH]c2nc(Cl)ccc12 for me?
Reply text: inactive

----------
Experiment: qHTS for differential inhibitors of proliferation of Plasmodium falciparum line D10 (AID 1877);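 note: parasites grown with compound for 72 h before DNA staining; plate controls were vehicle wells for no effect and reference inhibitor wells for full effect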
Conditions: series mostly up to 28.7 µM
Records with an inconclusive call do not appear. Activity calls are given as the source filed them. The call rests on the fitted dose curve; in most records, active means well fitted curve in the direction sought with a large enough effect; inconclusive means small, poorly fitted or top-dose-only effect, or another doubt; inactive means no such curve, though single readings can be large or run the other way.
Tick one outcome: Yes (active), No (inactive)

Examples from the recorded data:
Inquiry: Hi, do you know how CC(C)NCC(O)COc1ccc(CC(N)=O)cc1 (stereo not drawn) came out in this test?
Reply text: No

Inquiry: Entry CC(N)=NCCCC[C@@H](N)C(=O)O : call = ?
Reply text: No

Inquiry: How was COc1ccc2c(c1)CCC1C2CC[C@@]2(C)C1CC[C@@H]2NCCCCCCN1C(=O)C=CC1=O (stereo partly drawn) classified in this test?
Reply text: No

Inquiry: # fetch the recorded call for NC(N)=[N+]1CCc2ccccc2C1 here
Reply text: No

Inquiry: In this assay, the call recorded for O=c1onc2n1-c1cc(Br)ccc1OC2 was what?
Reply text: No

Now, please, on to the next molecule.
Inquiry: Given N[C@@H](Cc1ccc(O)c(I)c1)C(=O)O , state the outcome it received in this test.
Reply text: No

----------
Assay: qHTS for differential inhibitors of proliferation of Plasmodium falciparum line GB4 (AID 1816);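 note: parasite growth measured after 72 h incubation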
Settings: Plasmodium falciparum GB4 proliferation inhibition; series mostly up to 28.7 µM
Inconclusive results are not listed. Calls of active or inactive are those of the source. The call rests on the fitted dose curve; in most records, active means well fitted curve in the direction sought with a large enough effect; inconclusive means small, poorly fitted or top-dose-only effect, or another doubt; inactive means no such curve, though single readings can be large or run the other way.
Hi there, use one of these labels in your reply, thanks! t (active), f (inactive)

Inquiry: Just curious, what result did Cn1c(=O)[nH]c2ncn(C)c2c1=O get here?
Reply text: f

Inquiry: Field: outcome | Entry: c1ccc(CN2CCC3(CCCc4ccccc43)CC2)cc1
Reply text: t

Inquiry: Which outcome was entered for the compound CSC(N)=NCCC[C@H](N)C(=O)O in this test?
Reply text: f

Inquiry: Just curious, what result did CCCCS(=N)(=O)CC[C@H](N)C(=O)O (stereo partly specified) get here?
Reply text: t

Inquiry: Recorded test call requested for N=C(N)c1ccccc1
Reply text: f

Inquiry: Could you kindly confirm the outcome this assay logged for CCCC(=O)NCCc1c2n(c3ccc(OC)cc13)CCCc1ccccc1-2 ?
Reply text: t

Inquiry: Look up the recorded call for CN1CCCC1CCOC(C)(c1ccccc1)c1ccc(Cl)cc1 (stereo unspecified) in this test.
Reply text: t

Inquiry: Please indicate how the test categorized CC1CNCCN1S(=O)(=O)c1cccc2cnccc12 (stereo unspecified) .
Reply text: t

Inquiry: Fill in: this test's call for NCCCCN=C(N)N is ___
Reply text: f

Inquiry: Could you kindly confirm the outcome this assay logged for Cc1cc2c(cc1Cl)N(C(=O)Nc1ccnc3ccccc13)CC2 ?
Reply text: f

Inquiry: Could you please tell me the result logged for N[C@H](C(=O)O)[C@H]1C[C@@H]1C(=O)O in this assay?
Reply text: f

Inquiry: Please share the test call associated with C=CC[C@H](N)C(=O)O .
Reply text: f

Inquiry: What classification did CCCCCC(O)CCCC(=O)O (stereo unspecified) end up with in this test?
Reply text: f

----------
Assay: qHTS Validation Assay to Find Inhibitors of Chronic Active B-Cell Receptor Signaling (AID 485345);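 note: 0% = untreated basal cells and 100% = 10 µM MG-132 proteasome inhibitor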
Conditions: ABC-DLBCL cells, chronic BCR signaling reporter, CBG luciferase; series mostly up to 46.1 µM
Results filed as inconclusive are left out. Activity calls are given as the source filed them. Calls follow the shape of the dose curve; as a rule, active = well fitted curve in the direction sought with a large enough effect in the main read-out, with a control signal flat (not every such curve was filed as active); inconclusive = small, poorly fitted or top-dose-only effect, or effect the other way, or a change in a side signal; inactive = no such curve, though single readings can be large or run the other way.
EXPERIMENTAL_ENDPOINT: outcome

Inquiry: Entry O=c1[nH]ccc2c(O)cccc12 has what outcome?
Reply text: inactive

Inquiry: Look at this compound and give its reported outcome. O[Si](CCCN1CCCCC1)(c1ccc(F)cc1)C1CCCCC1 (stereo not drawn)
Reply text: inactive

Inquiry: Fill in: outcome of CCCCCCC(=O)OC1CC(C)(C)NC(C)(C)C1 is ___
Reply text: inactive
